molecular target: Human recombinant DHX9 protein (Homo sapiens (Human)); assay: DHX9 ATPase assay (ADP-Glo); conditions: read-out: DHX9 Biochemical Inflection Point
Assignment: determine reported pIC50 for the given molecules.
Answers are plain numbers, as −log10 of the molar value.

I need pIC50 for every entry listed below, if you could help.
1. CS(=O)(=O)Nc1cc(Cl)cc(NC(=O)c2cnn(-c3ncccc3OCc3cccc(Br)c3)c2)c1
2. Cc1sc(C(=O)Nc2cc(Cl)cc(NS(C)(=O)=O)c2)cc1-c1ccc(N2CCC(F)(F)C2)cn1
3. CS(=O)(=O)Nc1cc(Cl)cc(NC(=O)c2cc3cc(Cl)ccc3s2)c1

[7.31, 7.72, 5.38]

Write down the reported pIC50 of `CS(=O)(=O)Nc1cc(Cl)cc(NC(=O)c2cc(-c3ccccc3OCc3ccccc3)cs2)c1` , test system: Human recombinant DHX9 protein (Homo sapiens (Human)). 6.60

###

target: Human recombinant DHX9 protein (Homo sapiens (Human), UniProt Q08211); assay: DHX9 ATPase assay (ADP-Glo); assay type: biochemical
Sequence (Q08211 whole entry): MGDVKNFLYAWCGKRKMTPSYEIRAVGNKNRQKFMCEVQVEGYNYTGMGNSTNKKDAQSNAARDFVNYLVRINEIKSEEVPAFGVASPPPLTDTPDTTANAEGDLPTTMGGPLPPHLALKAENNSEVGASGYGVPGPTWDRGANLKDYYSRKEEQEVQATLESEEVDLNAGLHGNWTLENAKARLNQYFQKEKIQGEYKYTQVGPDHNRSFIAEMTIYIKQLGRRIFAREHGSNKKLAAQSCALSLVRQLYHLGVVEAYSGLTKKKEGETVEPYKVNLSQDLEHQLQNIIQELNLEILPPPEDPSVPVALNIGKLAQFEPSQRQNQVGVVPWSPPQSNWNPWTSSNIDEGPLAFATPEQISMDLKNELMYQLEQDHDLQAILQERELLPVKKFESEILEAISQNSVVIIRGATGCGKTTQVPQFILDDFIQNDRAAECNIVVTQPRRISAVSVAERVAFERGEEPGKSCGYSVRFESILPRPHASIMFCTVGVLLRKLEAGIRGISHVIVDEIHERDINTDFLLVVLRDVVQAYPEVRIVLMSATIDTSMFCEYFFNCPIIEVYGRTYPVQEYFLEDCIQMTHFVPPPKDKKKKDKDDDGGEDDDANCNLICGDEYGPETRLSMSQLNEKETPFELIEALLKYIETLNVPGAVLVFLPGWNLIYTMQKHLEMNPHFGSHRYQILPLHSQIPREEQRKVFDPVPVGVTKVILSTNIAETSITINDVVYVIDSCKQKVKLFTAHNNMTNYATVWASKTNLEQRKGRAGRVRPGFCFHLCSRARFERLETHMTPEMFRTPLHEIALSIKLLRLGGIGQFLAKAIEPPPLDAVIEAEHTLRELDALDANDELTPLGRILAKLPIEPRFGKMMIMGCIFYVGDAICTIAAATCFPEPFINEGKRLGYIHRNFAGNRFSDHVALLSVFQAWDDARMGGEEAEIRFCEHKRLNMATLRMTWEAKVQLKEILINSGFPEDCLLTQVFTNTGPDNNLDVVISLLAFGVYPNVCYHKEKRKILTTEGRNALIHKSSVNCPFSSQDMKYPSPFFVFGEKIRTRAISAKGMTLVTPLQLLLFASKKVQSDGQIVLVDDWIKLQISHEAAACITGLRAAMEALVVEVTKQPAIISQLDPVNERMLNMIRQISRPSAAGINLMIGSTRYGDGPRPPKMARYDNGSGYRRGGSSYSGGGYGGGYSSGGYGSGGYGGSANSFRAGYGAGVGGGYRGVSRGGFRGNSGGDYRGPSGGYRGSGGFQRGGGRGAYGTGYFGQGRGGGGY
Assignment: determine reported DHX9 Biochemical Max Inhibition for the given compounds.
Numbers only.

Study these solved cases before continuing.
>  <Chemical String>
Cc1sc(C(=O)Nc2cc(Cl)cc(NS(C)(=O)=O)c2)cc1-c1ncc(F)cc1N1CCC2(CC1)CC2

>  <DHX9 Biochemical Max Inhibition>
52.9

$$$$
>  <Chemical String>
Cc1sc(C(=O)Nc2cc(Cl)cc(NS(C)(=O)=O)c2)cc1-c1ncc(S(C)(=O)=O)cn1

>  <DHX9 Biochemical Max Inhibition>
69.3

$$$$
>  <Chemical String>
CN1CC(Oc2cnc(-c3cc(C(=O)Nc4cc(Cl)cc(NS(C)(=O)=O)c4)cn3CC(F)F)nc2)C1

>  <DHX9 Biochemical Max Inhibition>
70.2

$$$$
>  <Chemical String>
COc1cc(N2CC(F)(F)C2)cnc1-n1cc(C(=O)Nc2cc(Cl)cc(NS(C)(=O)=O)c2)cc1C

>  <DHX9 Biochemical Max Inhibition>
81.6

$$$$

What does the data say about its DHX9 Biochemical Max Inhibition? Entry: `COc1ccc(F)c(-c2cc(C(=O)Nc3cc(Cl)cc(NS(C)(=O)=O)c3)cn2C)n1` 53.6

###

Assignment: determine reported IC50 for the given molecules.
target: Human recombinant DHX9 protein (Homo sapiens (Human), UniProt Q08211); assay: DHX9 ATPase assay (ADP-Glo); conditions: read-out: DHX9 Biochemical Inflection Point
Give bare numbers, in nM.

I need IC50 for every entry listed below, if you could help.
1. CS(=O)(=O)Nc1cc(Cl)cc(NC(=O)c2cnn(C3CCCC3OCc3ccccc3)c2)c1 (centres unmarked)
2. CS(=O)(=O)Nc1cc(Cl)cc(NC(=O)c2cc(-c3ncccc3COc3cc(F)cc(F)c3)cs2)c1

1. 5.1
2. 65.5

I need IC50 for every entry listed below, if you could help.
1. CS(=O)(=O)Nc1cc(Cl)cc(NC(=O)c2cnn(-c3ncc(F)cc3OCc3cnco3)c2)c1
2. Cc1sc(C(=O)Nc2cc(Cl)cc(NS(C)(=O)=O)c2)cc1-c1ncc(OC(C)C(=O)O)cn1 (centres unmarked)
3. CS(=O)(=O)Nc1cc(Br)cc(NC(=O)c2cccc(-n3cccn3)c2)c1
4. Cn1cc(C(=O)Nc2cc(Cl)cc(NS(C)(=O)=O)c2)cc1-c1cccc(N2CC(F)(F)C2)n1
5. CS(=O)(=O)Nc1cc(Cl)cc(NC(=O)c2cc(-c3ccccc3)c(CO)s2)c1
6. Cc1cc(C(=O)Nc2cc(Cl)cc(NS(C)(=O)=O)c2)cn1-c1ncc(N2CC(F)(F)C2)cc1OC1CCC1

1. 84.7
2. 6.8
3. 45.1
4. 105
5. 8.9
6. 104

###

target: Human recombinant DHX9 protein (Homo sapiens (Human), UniProt Q08211); experiment: DHX9 ATPase assay (ADP-Glo); format: biochemical; conditions: read-out: DHX9 Biochemical Inflection Point
Quantity Measured: pIC50
One number for each entry, as −log10 of the molar value.

Study these solved cases before continuing.
>  <Chemical String>
Cn1cc(C(=O)Nc2cc(Cl)cc(NS(C)(=O)=O)c2)cc1-c1ncc(Cl)cn1

>  <pIC50>
7.60

$$$$
>  <Chemical String>
COc1cc(N2CC(F)(F)C2)cnc1-n1cc(C(=O)Nc2cc(Cl)cc(NS(C)(=O)=O)c2)cc1C

>  <pIC50>
7.97

$$$$
>  <Chemical String>
COC(=O)N1CCN(c2ccc(-c3cc(C(=O)Nc4cc(Cl)cc(NS(C)(=O)=O)c4)cn3C)nc2)CC1

>  <pIC50>
7.74

$$$$

I need pIC50 for every entry listed below, if you could help.
1. Cc1cc(C(=O)Nc2cc(Cl)cc(NS(C)(=O)=O)c2)cn1-c1ncc(N2CCCC2=O)cn1
2. Cn1nc(C(=O)Nc2cc(Cl)cc(NS(C)(=O)=O)c2)cc1-c1ccccc1OCc1ccccc1
3. CN1CC(Oc2cnc(-c3cc(C(=O)Nc4cc(Cl)cc(NS(C)(=O)=O)c4)cn3CC(F)(F)F)c(F)c2)C1
4. CS(=O)(=O)Nc1cc(Cl)cc(NC(=O)c2cnn(-c3c(F)cccc3OCc3cccc(F)c3)c2)c1

1: 7.97; 2: 4.87; 3: 7.86; 4: 7.20

###

Assignment: determine reported DHX9 Biochemical Max Inhibition for the given molecules.
target: Human recombinant DHX9 protein (Homo sapiens (Human)); experiment: DHX9 ATPase assay (ADP-Glo); format: biochemical
Numbers only.

Study these solved cases before continuing.
>  <Chemical String>
Cc1cc(C(=O)Nc2cc(Cl)cc(NS(C)(=O)=O)c2)cn1-c1ccc(N2CCC3(CC3)C2)cn1

>  <DHX9 Biochemical Max Inhibition>
71.8

$$$$
>  <Chemical String>
Cn1cc(C(=O)Nc2cc(Cl)cc(NS(C)(=O)=O)c2)cc1-c1ncc(N2CCCC(F)(F)C2)cc1F

>  <DHX9 Biochemical Max Inhibition>
56.4

$$$$
>  <Chemical String>
Cn1cc(C(=O)Nc2cc(Cl)cc(NS(C)(=O)=O)c2)cc1-c1ncc(OC2CN(CC(F)(F)F)C2)cc1F

>  <DHX9 Biochemical Max Inhibition>
73.9

$$$$
>  <Chemical String>
Cc1cc(C(=O)Nc2cc(Cl)cc(NS(C)(=O)=O)c2)cn1-c1ncc(N2CC(F)(F)C2)cc1Cl

>  <DHX9 Biochemical Max Inhibition>
75.7

$$$$
>  <Chemical String>
Cc1cc(F)cnc1-c1cc(C(=O)Nc2cc(Cl)cc(NS(C)(=O)=O)c2)cn1C

>  <DHX9 Biochemical Max Inhibition>
64.7

$$$$

Now, please, on to the next molecule.
Write down the reported DHX9 Biochemical Max Inhibition of `CS(=O)(=O)Nc1cc(F)cc(NC(=O)c2cnn(-c3ccccc3OCc3ccccc3)c2)c1` , test system: Human recombinant DHX9 protein (Homo sapiens (Human)). 74.9

###

biological target: Human recombinant DHX9 protein (Homo sapiens (Human)); test: DHX9 ATPase assay (ADP-Glo); type: biochemical
Quantity Measured: DHX9 Biochemical Max Inhibition (%)
Numbers only, in %.

Study these solved cases before continuing.
>  <Molecule>
CS(=O)(=O)Nc1cc(Br)cc(NC(=O)c2cnn(-c3ccc(N4CCOCC4)cn3)c2)c1

>  <Unit Symbol>
%

>  <DHX9 Biochemical Max Inhibition>
48.6

$$$$
>  <Molecule>
Cc1cccnc1-n1cc(C(=O)Nc2cc(Br)cc(NS(C)(=O)=O)c2)cc1C

>  <Unit Symbol>
%

>  <DHX9 Biochemical Max Inhibition>
67.4

$$$$

I need DHX9 Biochemical Max Inhibition for every entry listed below, if you could help.
1. CS(=O)(=O)Nc1cc(Cl)cc(NC(=O)c2cnn(C3CC4(COC4)C3)c2)c1
2. Cn1cc(C(=O)Nc2cc(Cl)cc(NS(C)(=O)=O)c2)cc1-c1ncc(F)cn1
3. CS(=O)(=O)Nc1cc(Cl)cc(NC(=O)c2cnn(C3CC4(CNC4)C3)c2)c1
4. Cn1cc(C(=O)Nc2cc(Cl)cc(NS(C)(=O)=O)c2)cc1N1CCCCC1=O
5. CS(=O)(=O)Nc1cc(Cl)cc(NC(=O)c2cc(-c3ncc(C(F)(F)F)cn3)cs2)c1

1: 57.3; 2: 61.8; 3: 71.9; 4: 76.5; 5: 61.5

###

molecular target: Human recombinant DHX9 protein (Homo sapiens (Human)); experiment: DHX9 ATPase assay (ADP-Glo); assay type: biochemical
Quantity Measured: DHX9 Biochemical Max Inhibition (%)
Give bare numbers, in %.

Study these solved cases before continuing.
>  <Chemical String>
Cc1cccnc1-c1cc(C(=O)Nc2cc(F)cc(NS(C)(=O)=O)c2)sc1C

>  <Unit Symbol>
%

>  <DHX9 Biochemical Max Inhibition>
78.1

$$$$
>  <Chemical String>
CCOc1cnc(-c2cc(C(=O)Nc3cc(Cl)cc(NS(=O)(=O)CC)c3)sc2C)nc1

>  <Unit Symbol>
%

>  <DHX9 Biochemical Max Inhibition>
78.7

$$$$
>  <Chemical String>
CS(=O)(=O)Nc1cc(Cl)cc(NC(=O)c2cc(-c3ccccn3)c(C3CC3)s2)c1

>  <Unit Symbol>
%

>  <DHX9 Biochemical Max Inhibition>
77

$$$$

Now, please, on to the next molecule.
Write down the reported DHX9 Biochemical Max Inhibition of `Cc1cc(C(=O)Nc2cc(Br)cc(NS(C)(=O)=O)c2)cn1C1CCCCC1` , test system: Human recombinant DHX9 protein (Homo sapiens (Human)). 59.5

Cited source: patent US20240316047A1
